target: human recombinant melanocortin-4 receptor (human, UniProt P32245 1-332); test: cell-based or functional assay
Sequence (P32245 whole entry): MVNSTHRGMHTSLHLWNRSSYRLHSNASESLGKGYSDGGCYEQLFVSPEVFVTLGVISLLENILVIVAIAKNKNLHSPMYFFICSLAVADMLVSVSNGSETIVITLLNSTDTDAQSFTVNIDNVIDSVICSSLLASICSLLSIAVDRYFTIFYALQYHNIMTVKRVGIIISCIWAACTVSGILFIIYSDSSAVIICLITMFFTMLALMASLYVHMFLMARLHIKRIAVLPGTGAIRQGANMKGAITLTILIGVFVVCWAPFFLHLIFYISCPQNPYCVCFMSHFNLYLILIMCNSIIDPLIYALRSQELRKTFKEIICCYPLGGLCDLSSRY
Bridge positions count the residues as written; N and C are the ends. Square brackets hold non-standard residues; d marks the D form. Aad = N[C@@H](CCCC(=O)O)C(=O)O; Orn = NCCC[C@H](N)C(=O)O; Dab = NCC[C@H](N)C(=O)O
Reported property: hMC4-R EC50

Challenge: What does the record list as hMC4-R EC50 for Ac-R[Aad]N[dF]RW[Dab]-NH2 (lactam 2-7, also called peptide No. 160) [Ac-Arg-cyclo(hGlu-Asn-D-Phe-Arg-Trp-Dab)-NH2] ?
Response given: 0.245 nM

Challenge: Repeat for the following binder: Ac-REN[dF]RW[Orn]-NH2 (lactam 2-7, also called peptide No. 161) [Ac-Arg-cyclo(Glu-Asn-D-Phe-Arg-Trp-Orn)-NH2]
Response given: 0.413 nM

Challenge: Input Ac-RKN[dF]RWD-NH2 (lactam 2-7) [Ac-Arg-cyclo(Lys-Asn-D-Phe-Arg-Trp-Asp)-NH2]
Response given: 0.189 nM

Challenge: Again, but for Ac-[dR]DQ[dF]RWK-NH2 (lactam 2-7, also called peptide No. 71) [Ac-D-Arg-cyclo(Asp-Gln-D-Phe-Arg-Trp-Lys)-NH2]
Response given: 2 nM

Challenge: Entry to check: RKNFRXD (HELM PEPTIDE1{[ac].R.K.N.[dF].R.[O=C([C@H](Cc1ccc2ccccc2c1)N[*:1])[*:2]].D.[am]}$PEPTIDE1,PEPTIDE1,3:R3-8:R3$$$V2.0; SMILES CC(=O)N[C@@H](CCCNC(=N)N)C(=O)N[C@H]1CCCCNC(=O)C[C@@H](C(N)=O)NC(=O)[C@H](Cc2ccc3ccccc3c2)NC(=O)[C@H](CCCNC(=N)N)NC(=O)[C@@H](Cc2ccccc2)NC(=O)[C@H](CC(N)=O)NC1=O, also called peptide No. 162) [Ac-Arg-cyclo(Lys-Asn-D-Phe-Arg-Nal 2-Asp)-NH2]
Response given: 0.85 nM

Challenge: Again, but for RXQFRWX (N-acetyl; X2 = Dab; D-Phe 4; X7 = hGlu; side-chain lactam Dab2-hGlu7; C-terminal amide, also called peptide No. 159) [Ac-Arg-cyclo(Dab-Gln-D-Phe-Arg-Trp-hGlu)-NH2]
Response given: 0.825 nM
